Target: Tyrosine-protein kinase Blk (Homo sapiens) (UniProt P51451)
Sequence (P51451 2-505 limits assumed): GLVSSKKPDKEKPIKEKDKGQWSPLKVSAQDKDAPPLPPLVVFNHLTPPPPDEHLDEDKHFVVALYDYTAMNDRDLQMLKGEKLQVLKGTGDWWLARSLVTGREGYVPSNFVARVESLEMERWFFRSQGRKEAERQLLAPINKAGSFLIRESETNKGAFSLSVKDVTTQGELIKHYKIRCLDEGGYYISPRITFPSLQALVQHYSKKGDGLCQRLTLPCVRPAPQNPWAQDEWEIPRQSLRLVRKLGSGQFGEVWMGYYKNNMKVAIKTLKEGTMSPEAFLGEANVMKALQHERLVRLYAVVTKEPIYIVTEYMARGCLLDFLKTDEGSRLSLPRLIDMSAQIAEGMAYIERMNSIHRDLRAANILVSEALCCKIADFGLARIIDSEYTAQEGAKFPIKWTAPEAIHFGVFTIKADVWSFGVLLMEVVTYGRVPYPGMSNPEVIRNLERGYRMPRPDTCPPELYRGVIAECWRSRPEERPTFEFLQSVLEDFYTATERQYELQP
Settings: at 10 µM
Assign 1 to entries whose residual activity meets or exceeds 60%; assign 0 to the rest.

See these solved cases before continuing.
O=C1NC(=O)C(c2cn(CCCO)c3ncccc23)=C1c1cnccn1
1
CCCCc1c(-c2ccc(O)cc2)[nH]c2nccnc12
0
COc1ccc(COc2ccc(Cc3cnc(N)nc3N)cc2OC)cc1
1
CCCC(=O)Oc1ccc2[nH]c(C(=O)c3cc4ccccc4[nH]3)cc2c1
1
O=c1cc(N2CCNCC2)oc2c(-c3ccccc3)cccc12
1
COc1cc2nccc(Oc3ccc(NC(=S)NC(=O)c4ccccc4C)cc3)c2cc1OC
0

Check the entry O=C(c1ccccc1)c1ccc(N2CCOCC2)cc1O : does residual activity equal or exceed 60%? 1

Does COc1cc2c(cc1OC)-c1n[nH]c(Nc3cccc(F)c3)c1C2 have a reported residual activity of at least 60%? 0

* * *

Target: Dual specificity mitogen-activated protein kinase kinase 7 (Homo sapiens)
Settings: at 1 µM
assay-metric: residual activity (%)
Answer with a number only, understood to be in %.

Consider the worked cases shown below.
CSc1nc(-c2ccc(F)cc2)c(-c2ccnc(NC(C)c3ccccc3)c2)[nH]1 (stereo unspecified)
99
O=C1Nc2ccc(Cl)cc2/C1=C/c1cc(Cl)c(O)c(Cl)c1
95
CCOc1nc(NC(=O)Cc2cc(OC)ccc2OC)cc(N)c1C#N
11
NC(=O)Nc1sc(-c2ccc(F)cc2)cc1C(N)=O
96
O=C1C(Cl)=C(N2C(=O)CCC2=O)C(=O)c2ccccc21
67

# evaluate next
residual activity of CC(C)(C)n1nc(Cc2cccc3ccccc23)c2c(N)ncnc21 on Dual specificity mitogen-activated protein kinase kinase 7 (Homo sapiens)? 98

* * *

Measured residual activity, listed per entry for reference.
Biological target: Serine/threonine-protein kinase Nek6 (Homo sapiens) (UniProt Q9HC98)
Sequence (Q9HC98 whole entry): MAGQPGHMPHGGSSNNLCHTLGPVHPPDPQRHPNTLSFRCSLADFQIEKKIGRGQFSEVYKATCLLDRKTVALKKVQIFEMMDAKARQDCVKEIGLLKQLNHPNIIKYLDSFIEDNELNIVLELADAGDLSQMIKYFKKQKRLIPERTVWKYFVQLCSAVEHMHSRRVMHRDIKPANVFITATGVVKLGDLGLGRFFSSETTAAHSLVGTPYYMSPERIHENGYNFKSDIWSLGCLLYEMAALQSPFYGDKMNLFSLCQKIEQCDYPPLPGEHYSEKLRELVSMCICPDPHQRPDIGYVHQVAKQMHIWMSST
Details: at 10 µM
Description: Millipore: Percentage of residual kinase activity of NEK6 at 10uM relative to control. Control inhibitor: Phosphoric acid* at 0.3uM. Buffer: 8 mM MOPS pH 7.0, 0.2 mM EDTA
Enter your answer as a number in %; do not include the unit.

// known answers, use as guide
O=C1Cc2c([nH]c3ccc([N+](=O)[O-])cc23)-c2ccccc2N1
118
NC(=O)Nc1sc(-c2ccc(F)cc2)cc1C(N)=O
106
O=C1NC(=O)C(c2c[nH]c3ccccc23)=C1c1c[nH]c2ccccc12
127
O=c1cc(N2CCOCC2)oc2c1ccc1ccccc12
106
O=C(O)/C=C/c1cc(Br)c(Br)c(Br)c1Br
86
Cn1c2ccccc2c2c3c(c4c5ccccc5n(CCC#N)c4c21)CNC3=O
113

Give the measured residual activity of CN(C)S(=O)(=O)c1ccc2c(c1)/C(=C/c1cc3c([nH]1)CCCC3)C(=O)N2 . 114

* * *

Molecular target: Protein kinase C delta type (Homo sapiens) (UniProt Q05655)
Sequence (Q05655 whole entry, looked up): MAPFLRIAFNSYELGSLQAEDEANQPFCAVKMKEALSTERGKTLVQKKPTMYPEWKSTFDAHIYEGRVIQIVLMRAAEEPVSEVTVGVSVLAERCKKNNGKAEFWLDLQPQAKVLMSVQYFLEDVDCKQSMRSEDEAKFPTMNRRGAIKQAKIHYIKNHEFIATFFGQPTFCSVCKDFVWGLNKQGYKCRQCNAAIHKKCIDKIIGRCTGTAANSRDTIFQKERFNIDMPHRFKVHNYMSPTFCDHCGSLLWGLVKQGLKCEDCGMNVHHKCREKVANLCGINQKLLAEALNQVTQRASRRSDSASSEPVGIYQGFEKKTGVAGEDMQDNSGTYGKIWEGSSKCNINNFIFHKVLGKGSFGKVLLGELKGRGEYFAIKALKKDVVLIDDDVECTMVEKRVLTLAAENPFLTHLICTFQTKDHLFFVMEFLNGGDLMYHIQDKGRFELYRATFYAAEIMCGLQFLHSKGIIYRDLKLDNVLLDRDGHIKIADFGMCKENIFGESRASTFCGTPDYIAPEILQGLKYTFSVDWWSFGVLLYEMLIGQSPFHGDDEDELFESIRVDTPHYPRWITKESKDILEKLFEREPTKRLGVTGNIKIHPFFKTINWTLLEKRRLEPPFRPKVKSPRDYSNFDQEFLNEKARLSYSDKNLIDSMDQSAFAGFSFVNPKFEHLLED
Settings: at 1 µM
assay-metric: residual activity (%)
Enter your answer as a number in %; do not include the unit.

O=S(=O)(c1cccc2cnccc12)N1CCCNCC1
85

Report residual activity for COc1cc2c(cc1OC)-c1n[nH]c(Nc3cccc(F)c3)c1C2 tested on Protein kinase C delta type (Homo sapiens) (UniProt Q05655). 102

Please state recorded residual activity (tested on Protein kinase C delta type (Homo sapiens) (UniProt Q05655)) of COc1cc2ncnc(Nc3cccc(Cl)c3)c2cc1OC 104

Field: residual activity (Protein kinase C delta type (Homo sapiens) (UniProt Q05655)). Entry: COc1cc2nccc(Oc3ccc(NC(=O)Nc4cc(C)on4)c(Cl)c3)c2cc1OC 100

Given the entry Nc1nc(Nc2ccc(S(N)(=O)=O)cc2)nn1C(=O)c1c(F)cccc1F , what residual activity was observed with Protein kinase C delta type (Homo sapiens) (UniProt Q05655)? 70

Request: residual activity, test system Protein kinase C delta type (Homo sapiens) (UniProt Q05655), entry CC(C)[C@H](CO)Nc1nc(Nc2cc(N)cc(Cl)c2)c2ncn(C(C)C)c2n1 93

Request - read-out residual activity | tested on Protein kinase C delta type (Homo sapiens) (UniProt Q05655) | molecule O=C1Cc2c([nH]c3ccc(Br)cc23)-c2ccccc2N1 99

Provide value of residual activity for this record tested with Protein kinase C delta type (Homo sapiens) (UniProt Q05655): Nc1ncnc2c1cnn2-c1ccccc1 99

Fill in the recorded residual activity for this molecule, with Protein kinase C delta type (Homo sapiens) (UniProt Q05655) as test system: NC(=O)c1ccc(-c2nc(-c3ccc4c(c3)OCCO4)c(-c3ccccn3)[nH]2)cc1 93

Lab request: please report residual activity under test system Protein kinase C delta type (Homo sapiens) (UniProt Q05655) for CCOC(=O)c1c(C)[nH]c(/C=C2\C(=O)Nc3ccccc32)c1C 96

Form field - read-out: residual activity; system: Protein kinase C delta type (Homo sapiens) (UniProt Q05655); submitted item: NC(=O)Nc1sc(-c2ccc(F)cc2)cc1C(N)=O 78
